Where do these numbers come from? They come from patent US20240279520A1.

assay: Experimental dielectric property measurements, Agilent 85070 Dielectric Probe; format: physicochemical; settings: 20 GHz, room temperature
Answer each item with its documented Dielectric Constant (20 GHz).

FC(F)OCC(F)(F)C(F)(F)F = 3.4
FC(F)OCC(F)(F)C(F)F = 4.0
FC(F)OCC(F)(F)C(F)(F)C(F)(F)F = 2.8

Read the next record carefully.
### Prompt Note down Dielectric Constant (20 GHz) recorded for FC(F)OC(C(F)(F)F)C(F)(F)F
### Response <5

###

Experiment: Experimental dielectric property measurements, Agilent 85070 Dielectric Probe
Assay type: physicochemical
Settings: 1 GHz, ambient pressure, approximately 23° C.
Experimental: “Dielectric Constant” means the dielectric constant as measured at room temperature at 20 giga hertz (GHz). Experimental dielectric property measurements were made on all liquids using the Agilent 85070 Dielectric Probe. All measurements were made at ambient pressure and room temperature (approximately 23° C.). Prior to making measurements, the system was calibrated from 1 GHz to 20 GHz with an open circuit, a short circuit, and DI water (@22.4° C.) standard. […]
value kind: Experimental Dk at 1 GHz
One number for each entry.

Guide cases for Experimental Dk at 1 GHz, answers given:
FC(F)OCC(F)(F)C(F)F = 2.94
O [DI Water, reference compound] = 79.15
FC(F)OCC(F)(F)C(F)(F)C(F)(F)F = 4.51

Could you now look at the following molecule, please?
### Prompt Identify the reported Experimental Dk at 1 GHz for the following entry. FC(F)OCC(F)(F)C(F)(F)F
### Response 5.21

###

experiment: Boiling point of fluoroethers; format: physicochemical; details: Table 5
We use 70 °C as the dividing line for Bp: on or above the line is YES, below is NO.

Study these solved cases before continuing.
FC(F)OCC(F)(F)C(F)(F)F [Compound 2] = NO
FC(F)OC(C(F)(F)F)C(F)(F)F [Compound 3] = NO
FC(F)OCC(F)(F)C(F)F [Compound 1] = YES

Next molecule, please.
### Prompt Does Bp meet or surpass 70 °C for O [DI Water, reference compound] ?
### Response YES

###

assay: Experimental dielectric property measurements, Agilent 85070 Dielectric Probe; assay type: physicochemical; conditions: 1 GHz, ambient pressure, approximately 23° C.
Assignment: determine reported Experimental Loss Tangent at 1 GHZ for the given compounds.
One number for each entry.

FC(F)OCC(F)(F)C(F)(F)F = 0.038
FC(F)OCC(F)(F)C(F)F = 0.036
FC(F)OCC(F)(F)C(F)(F)C(F)(F)F = 0.054

### Prompt Return Experimental Loss Tangent at 1 GHZ for the following compound: O [DI Water, reference compound]
### Response 0.052

###

For each of the compounds below, state its Density.
experiment: Density of fluoroethers; type: physicochemical; conditions: Table 2

FC(F)OC(C(F)(F)F)C(F)(F)F = 1.3-1.7
FC(F)OCC(F)(F)C(F)F = 1.3-1.7
FC(F)OCC(F)(F)C(F)(F)C(F)(F)F = 1.3-1.7

Field: next compound
### Prompt Provide measured Density value, entry: FC(F)OCC(F)(F)C(F)(F)F
### Response 1.3-1.7

###

Please respond with reported Boiling point for every item in the list.
assay: Boiling point of fluoroethers; format: physicochemical; conditions: Table 2
Give bare numbers, in °C.

Here's what some known entries look like.
FC(F)OCC(F)(F)C(F)(F)C(F)(F)F = 69
FC(F)OCC(F)(F)C(F)F = 76
FC(F)OC(C(F)(F)F)C(F)(F)F = 41

Here's the next entry for you.
### Prompt Look up Boiling point of FC(F)OCC(F)(F)C(F)(F)F and report it.
### Response 46
